tested target: δ receptor
method notes: In vitro receptor binding, δ receptor, radioligand DPPE
measurement context: forebrain membranes, 25° C., 40 min

{"compound": "C[C@@H](NC(=O)[C@@H](N)Cc1ccc(O)cc1)C(=O)NCC(=O)N[C@@H](CCc1ccccc1)C(N)=O [BIM-38046]", "tested target": "δ receptor", "Ki (nM)": 72.7}

* * *

tested target: μ receptor
method notes: In vitro receptor binding, μ receptor, radioligand DAGO
measurement context: forebrain membranes, 25° C., 60 min
pKi: −log10 of the molar value.

{"line notation": "C[C@@H](NC(=O)[C@@H](N)Cc1ccc(O)cc1)C(=O)NCC(=O)N[C@@H](CCc1ccccc1)C(N)=O", "pKi": 8.53}

The values you see were collected from patent US5663295A.
